B1: Nuclear receptor subfamily 1 group D member 2, residues 103 to 171; numbered along this chain, Q14995 (parent)
chain: CKVCGDVASGFHYGVHACEGCKGFFRRSIQQNIQYKKCLKNENCSIMRMNRNRCQQCRFKKCLSVGMSR

variants of: B1; assay: abundance fitness (aPCA) (normalised: wild type 0, dead -1); higher = more abundant; growth selection in yeast, the domain comes from the species named; settings: Homo sapiens
# abundance fitness per entry
Lab note: record just the number, no unit beside it.

Known results for variants:
[
  {
    "mutation.name": "Q31T",
    "observed.measurement": -0.238
  },
  {
    "mutation.name": "M49S",
    "observed.measurement": 0.076
  },
  {
    "mutation.name": "S68T",
    "observed.measurement": -0.018
  },
  {
    "mutation.name": "N41M",
    "observed.measurement": -0.586
  },
  {
    "mutation.name": "K60L",
    "observed.measurement": -0.097
  }
]

Prompt line: Item F59G has what recorded abundance fitness?
Response line: -0.395

Prompt line: Item L39H has what recorded abundance fitness?
Response line: -0.167

Prompt line: Item R48T has what recorded abundance fitness?
Response line: -0.013

Prompt line: Item N52E has what recorded abundance fitness?
Response line: 0.139

Prompt line: Item M67W has what recorded abundance fitness?
Response line: -0.415

Prompt line: Item C62Y has what recorded abundance fitness?
Response line: -0.492

Prompt line: Item N41G has what recorded abundance fitness?
Response line: -0.036

Prompt line: Item Q31K has what recorded abundance fitness?
Response line: -0.391

Prompt line: Item S64H has what recorded abundance fitness?
Response line: -0.449

Prompt line: Item K36V has what recorded abundance fitness?
Response line: -0.26
